- TARGET_SYSTEM: full-length beta-Catenin (Uniprot ID P35222) (Homo sapiens, UniProt P35222)
- Construct: 10 nM full-length beta-Catenin (Uniprot ID P35222)
- Sequence (P35222 1-781): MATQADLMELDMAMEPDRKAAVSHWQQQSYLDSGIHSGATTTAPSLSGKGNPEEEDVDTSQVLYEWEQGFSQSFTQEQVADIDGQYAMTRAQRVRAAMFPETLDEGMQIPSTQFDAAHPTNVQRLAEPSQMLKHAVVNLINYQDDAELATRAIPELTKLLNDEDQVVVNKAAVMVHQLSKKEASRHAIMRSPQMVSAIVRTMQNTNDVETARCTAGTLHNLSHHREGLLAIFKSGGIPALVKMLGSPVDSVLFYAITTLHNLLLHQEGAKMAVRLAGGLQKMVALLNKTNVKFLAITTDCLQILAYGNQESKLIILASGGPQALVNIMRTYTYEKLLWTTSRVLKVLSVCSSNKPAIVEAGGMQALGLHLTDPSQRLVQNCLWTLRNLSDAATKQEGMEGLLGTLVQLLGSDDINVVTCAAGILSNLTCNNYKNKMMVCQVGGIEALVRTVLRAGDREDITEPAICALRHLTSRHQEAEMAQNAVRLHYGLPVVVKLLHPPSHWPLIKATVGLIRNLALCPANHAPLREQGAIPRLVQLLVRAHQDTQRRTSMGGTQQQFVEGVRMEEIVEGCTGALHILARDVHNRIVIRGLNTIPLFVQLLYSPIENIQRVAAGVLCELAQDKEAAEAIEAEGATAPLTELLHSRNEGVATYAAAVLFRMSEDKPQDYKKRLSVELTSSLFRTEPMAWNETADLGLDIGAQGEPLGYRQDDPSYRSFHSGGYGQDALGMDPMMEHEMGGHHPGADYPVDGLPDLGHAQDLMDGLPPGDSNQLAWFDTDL
- ASSAY_NAME: Fluorescence polarization IC50 (beta-catenin / 5FAM-TCF4 10-53 competition)
- Format: binding
- TEST_CONTEXT: fluorescence polarization; read-out: beta-Catenin FP IC50
pIC50: −log10 of the molar value.
So basically: pIC50 at 8 or higher? That is t. Lower than 8? That is f.

COMPOUND	LABEL
CC(=O)N1CCC[C@]12CC=CCCCC1(CCCC=CCCCOC(=O)N3CC[C@@](C(=O)N[C@@H](Cc4ccccc4)C(=O)N[C@@H](Cc4csc5ccccc45)C(=O)N[C@@H](CCCCN)C(N)=O)(C3)NC(=O)[C@H](CC(C)C)NC(=O)[C@H](Cc3ccccc3)NC(=O)[C@H](C)NC(=O)[C@H](CCCCNC(C)C)NC(=O)[C@H]([C@@H](C)O)NC(=O)[C@H](CC(N)=O)NC1=O)NC(=O)[C@H](C)NC(=O)[C@H](CC(=O)O)NC2=O (stereo partly drawn)	f
CC(=O)N1CCC[C@]12CC=CCCCC1(CCCC=CCCCCCC[C@@](C)(C(=O)N[C@@H](Cc3cccc(F)c3)C(=O)N[C@@H](Cc3csc4ccccc34)C(=O)N[C@@H](CCC(N)=O)C(N)=O)NC(=O)[C@H](C(C)C)NC(=O)[C@H](Cc3ccccc3)NC(=O)[C@H](C)NC(=O)[C@H](C)NC(=O)[C@H](Cc3cn(C)cn3)NC(=O)[C@H](CC(=O)O)NC1=O)NC(=O)[C@H](C)NC(=O)[C@H](CC(=O)O)NC2=O (stereo partly drawn)	f
CC(=O)N1CCC[C@]12CC=CCCCC1(CCCC=CCCCOC(=O)N3CC[C@@](C(=O)N[C@@H](Cc4ccccc4C(F)(F)F)C(=O)N[C@@H](Cc4csc5ccccc45)C(=O)N[C@@H](CO)C(N)=O)(C3)NC(=O)[C@H](CC(C)C)NC(=O)[C@H](Cc3ccccc3)NC(=O)[C@H](C)NC(=O)[C@H](C)NC(=O)[C@H](Cn3cc(CC(C)(C)C(=O)O)nn3)NC(=O)[C@H](CC(=O)O)NC1=O)NC(=O)[C@H](CC(C)(C)C)NC(=O)[C@H](CC(=O)O)NC2=O (stereo partly drawn)	t
CC(=O)N1CCC[C@]12CC=CCCCC1(CCCC=CCCCOC(=O)N3CC[C@@](C(=O)N[C@@H](Cc4ccsc4)C(=O)N[C@@H](Cc4csc5ccccc45)C(=O)N[C@H](C(N)=O)C(C)C)(C3)NC(=O)[C@H](CC(C)C)NC(=O)[C@H](Cc3ccccc3)NC(=O)[C@H](C)NC(=O)[C@H](C)NC(=O)[C@H](CN(CC(=O)O)CC(F)(F)F)NC(=O)[C@H](CC(=O)O)NC1=O)NC(=O)[C@H](CC(C)(C)C)NC(=O)[C@H](CC(=O)O)NC2=O (stereo partly drawn) [I-1751]	f
CC(=O)N1CCC[C@]12CC=CCCCC1(CCCC=CCCCCCC[C@@](C)(C(=O)N[C@@H](Cc3ccccc3)C(=O)N[C@@H](Cc3csc4ccccc34)C(=O)N[C@@H](CCC(N)=O)C(N)=O)NC(=O)[C@H](CC(N)=O)NC(=O)[C@H](Cc3ccccc3)NC(=O)[C@H](C)NC(=O)[C@H](C)NC(=O)[C@H](Cc3nn[nH]n3)NC(=O)[C@H](CC(=O)O)NC1=O)NC(=O)[C@H](C)NC(=O)[C@H](CC(=O)O)NC2=O (stereo partly drawn)	f
CC(=O)N1CCC[C@]12CC=CCCCC1(CCCC=CCCCOC(=O)N3CC[C@@](C(=O)N[C@@H](Cc4ccsc4)C(=O)N[C@@H](Cc4c[nH]c5ncccc45)C(=O)N[C@@H](CCC(N)=O)C(N)=O)(C3)NC(=O)[C@H](CC(N)=O)NC(=O)[C@H](Cc3ccccc3)NC(=O)[C@H](C)NC(=O)[C@H](C)NC(=O)[C@H](CC(=O)O)NC(=O)[C@H](CC(=O)O)NC1=O)NC(=O)[C@H](CC(C)(C)C)NC(=O)[C@H](CC(=O)O)NC2=O (stereo partly drawn)	f

====

- ASSAY_NAME: Solubility in PBS
- Type: physicochemical
- TEST_CONTEXT: Solubility (uM)
METRIC: Solubility

MOLECULE	READOUT_VALUE
CC(=O)N1CCC[C@]12CC=CCCCC1(CCCC=CCCCOC(=O)N3CC[C@@](C(=O)N[C@@H](Cc4ccccc4F)C(=O)N[C@@H](Cc4csc5ccccc45)C(=O)N[C@@H](CO)C(N)=O)(C3)NC(=O)[C@H](CO)NC(=O)[C@H](Cc3ccccc3)NC(=O)[C@H](C)NC(=O)[C@H](C)NC(=O)[C@H](CC(=O)O)NC(=O)[C@H](CC(=O)O)NC1=O)NC(=O)[C@H](CC(C)(C)C)NC(=O)[C@H](CC(=O)O)NC2=O (stereo partly drawn) [I-1101]	48 µM
CC(=O)N1CCC[C@]12CC=CCCCC1(CCCC=CCCCOC(=O)N3CC[C@@](C(=O)N[C@@H](Cc4ccsc4)C(=O)N[C@@H](Cc4csc5ccccc45)C(=O)N[C@@H](CCC(N)=O)C(=O)N[C@@H](CCCCNC(=O)CN4CCOCC4)C(N)=O)(C3)NC(=O)[C@H](CC(N)=O)NC(=O)[C@H](Cc3ccccc3)NC(=O)[C@H](C)NC(=O)[C@H](C)NC(=O)[C@H](CC(=O)O)NC(=O)[C@H](CC(=O)O)NC1=O)NC(=O)[C@H](CC(C)(C)C)NC(=O)[C@H](CC(=O)O)NC2=O (stereo partly drawn) [I-905]	46 µM
CC(=O)N1CCC[C@]12CC=CCCCC1(CCCC=CCCCCCC[C@@](C)(C(=O)N[C@@H](Cc3ccccc3Cl)C(=O)N[C@@H](Cc3csc4ccccc34)C(=O)N[C@H](C(N)=O)[C@@H](C)O)NC(=O)[C@H]([C@@H](C)O)NC(=O)[C@H](Cc3ccccc3)NC(=O)[C@H](C)NC(=O)[C@H](C)NC(=O)[C@H](CCC(=O)O)NC(=O)[C@H](CC(=O)O)NC1=O)NC(=O)[C@H](CC(C)(C)C)NC(=O)[C@H](CC(=O)O)NC2=O (stereo partly drawn) [I-1091]	33 µM

====

- TARGET_SYSTEM: full-length beta-Catenin (Uniprot ID P35222) (Homo sapiens, UniProt P35222)
- Construct: 10 nM full-length beta-Catenin (Uniprot ID P35222)
- ASSAY_NAME: Fluorescence polarization IC50 (beta-catenin / 5FAM-TCF4 10-53 competition)
- Format: binding
- TEST_CONTEXT: read-out: beta-Catenin FP IC50
METRIC: IC50 (nM)

MOLECULE	TARGET_SYSTEM	READOUT_VALUE
CC(=O)N1CCC[C@]12CC=CCCCC1(CCCC=CCCCCCC[C@@](C)(C(=O)N[C@@H](Cc3ccccc3Cl)C(=O)N[C@@H](Cc3csc4ccccc34)C(=O)N[C@@H](CCC(N)=O)C(N)=O)NC(=O)[C@H](CC(C)C)NC(=O)[C@H](Cc3ccccc3)NC(=O)[C@H](C)NC(=O)[C@H](C)NC(=O)[C@H](CN(CC(=O)O)CC(F)(F)F)NC(=O)[C@H](CC(=O)O)NC1=O)NC(=O)[C@H](CC(C)(C)C)NC(=O)[C@H](CC(=O)O)NC2=O (stereo partly drawn)	full-length beta-Catenin (Uniprot ID P35222) (Homo sapiens, UniProt P35222)	121
CC(=O)N1CCC[C@]12CC=CCCCC1(CCCC=CCCCOC(=O)N3CC[C@@](C(=O)N[C@@H](Cc4ccccc4)C(=O)N[C@@H](Cc4csc5ccccc45)C(=O)N[C@@H](CO)C(N)=O)(C3)NC(=O)[C@H](CO)NC(=O)[C@H](CC3CCCCC3)NC(=O)[C@H](C)NC(=O)[C@H](C)NC(=O)[C@H](CC(=O)O)NC(=O)[C@H](CC(=O)O)NC1=O)NC(=O)[C@H](CC(C)(C)C)NC(=O)[C@H](CC(=O)O)NC2=O (stereo partly drawn)	full-length beta-Catenin (Uniprot ID P35222) (Homo sapiens, UniProt P35222)	36
CC(=O)N1CCC[C@]12CC=CCCCC1(CCCC=CCCCOC(=O)N3CC[C@@](C(=O)N[C@@H](Cc4ccccc4F)C(=O)N[C@@H](Cc4csc5ccccc45)C(=O)N[C@@H](CCC(N)=O)C(N)=O)(C3)NC(=O)[C@H]([C@@H](C)O)NC(=O)[C@H](Cc3ccccc3)NC(=O)[C@H](C)NC(=O)[C@H](C)NC(=O)[C@H](CC(N)=O)NC(=O)[C@H](CC(=O)O)NC1=O)NC(=O)[C@H](CC(C)(C)C)NC(=O)[C@H](CC(=O)O)NC2=O (stereo partly drawn)	full-length beta-Catenin (Uniprot ID P35222) (Homo sapiens, UniProt P35222)	33
